The reported measurements were obtained from PubChem BioAssay (NCATS).

# test details: qHTS assay for cell viability of HEK293 cells (AID 743288); further: on the % scale 0 is the no-effect control and ±100 the full control effect
# condition info: ATP luminescence (CellTiter-Glo), 18 h; stronger effect = lower value
Results filed as inconclusive are left out.
# Lookup of reported max response keyed by entry

- compound: "CC(C)(C)C(O)/C(=C\\c1ccc(Cl)cc1Cl)n1cncn1 (centres undefined)"
  max response, %: -6.74
- compound: "O=[N+]([O-])c1ccc2ccc3cccc4ccc1c2c34"
  max response, %: -25
- compound: "C=CC1(C)OC(=O)N(c2cc(Cl)cc(Cl)c2)C1=O (centres undefined)"
  max response, %: -8.07
- compound: "N#Cc1cc(Br)c(O)c(Br)c1"
  max response, %: -7.19
- compound: "CCOP(=S)(OCC)SCCl"
  max response, %: -19.2
- compound: "CC(Oc1ccc(Cl)cc1Cl)C(=O)O (centres undefined)"
  max response, %: -4.02
- compound: "CCOC(=O)C(C)OC(=O)c1cc(Oc2ccc(C(F)(F)F)cc2Cl)ccc1[N+](=O)[O-] (centres undefined)"
  max response, %: -22.9
- compound: "Brc1ccc(Br)cc1"
  max response, %: -8.04
- compound: "CC1(C)Cc2cccc(O)c2O1"
  max response, %: 4.44
- compound: "CS(=O)(=O)c1cc(C(F)(F)F)ccc1C(=O)c1cnoc1C1CC1"
  max response, %: -14.1
- compound: "C1=Cc2cccc3cccc1c23"
  max response, %: -13.5
- compound: "CCCCC(CC)COC(=O)Cl (centres undefined)"
  max response, %: -1.32
- compound: "CC(C)CCCCCCOC(=O)c1ccccc1C(=O)OCCCCCCC(C)C"
  max response, %: -8.54
- compound: "CC(C)(C)C(=O)[C@H](Oc1ccc(Cl)cc1)n1cncn1"
  max response, %: -16.1
- compound: "CCOP(=S)(OCC)SC(CCl)N1C(=O)c2ccccc2C1=O (centres undefined)"
  max response, %: -5.75
- compound: "CC(Oc1cccc(Cl)c1)C(=O)O (centres undefined)"
  max response, %: -4.52
- compound: "CNC(=O)Oc1cc(C)cc(C(C)C)c1"
  max response, %: -6.56
- compound: "N#Cc1cc(I)c(O)c(I)c1"
  max response, %: -4.72
- compound: "CCOP(=O)(OCC)OC(Cl)C(Cl)(Cl)Cl (centres undefined)"
  max response, %: -7.64
